# System name: T1, extracellular domain of activin receptor type IIB (ActRIIBecd), biotinylated (Homo sapiens (Human), UniProt Q13705 27-117, amino-biotinylated with amine-PEG3-Biotin)
# T1 construct: immobilised on a streptavidin-coated sensor chip; also called biotinylated ActRIIBecd; extracellular domain of ActRIIB
# T1 sequence: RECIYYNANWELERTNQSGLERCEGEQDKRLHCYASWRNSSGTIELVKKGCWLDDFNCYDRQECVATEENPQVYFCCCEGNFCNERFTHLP
# Assay summary: BIAcore SPR, biotinylated ActRIIBecd on chip; SD ±14.15 nM
Value kind: pKd
Interpret pKd as the negative base-10 log of the concentration measured in mol/L.

[in] Fill in the blank: the reported pKd of TYPASPKPMRHKMRSCACCAGGLRNRTGTV [Clone No. 25 domain (ActRIIBecd-associated polypeptide)] is ____.
[out] 7.39
